Entry source: patent US20230134571A1

subject-of-test: HIV Env of isolate 620345.c01 (clade AE) (HIV)
experimental-protocol: cell-based or functional assay
property: IC80 (µg/ml) with constrains

Requested read-out: IC80 (µg/ml) with constrains. Entry: ePGDM5 (antibody, V domains shown) VH: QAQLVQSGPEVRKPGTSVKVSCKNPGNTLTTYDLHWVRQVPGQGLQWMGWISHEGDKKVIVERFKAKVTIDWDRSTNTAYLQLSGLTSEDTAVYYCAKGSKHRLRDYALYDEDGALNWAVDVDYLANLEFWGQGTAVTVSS VL: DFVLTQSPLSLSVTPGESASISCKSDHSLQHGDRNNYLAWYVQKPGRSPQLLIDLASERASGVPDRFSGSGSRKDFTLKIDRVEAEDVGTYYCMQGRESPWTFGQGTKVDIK
> 100 µg/mL
